- assay notes: Phase 1 PK Part 2: relative bioavailability, dose proportionality, food effect of milled API tablet
- Type: in vivo, human
- particulars: human, plasma, oral, 10 mg, Food effect, completers; Treatment F (Reference): 1 × 10 mg milled API tablet, fasted; read-out: Geometric Mean AUC∞
quantity: AUC(0-inf)
A complete answer gives the number followed by the unit.

Query string: Quick one: AUC(0-inf) of Cc1cc(C)cc(C2CCCN2Cc2ccc(Oc3ccc(C(N)=O)cc3F)cc2)c1 (stereo not shown) ?
Result string: 280 ng·h/mL

====

- assay notes: Phase 1 PK Part 2: relative bioavailability, dose proportionality, food effect of milled API tablet
- Assay type: in vivo, human
- particulars: human, plasma, oral, 10 mg, Food effect, completers; Treatment F (Reference): 1 × 10 mg milled API tablet, fasted; read-out: Geometric Mean AUClast
- Excerpt: This is a Phase 1, open-label, single dose, multicenter, 4-part study in healthy adult participants. Potential participants will be screened from Day −28 to Day −2 to determine participants' eligibility for study participation. […] In Parts 1 and 2, plasma concentrations will be determined for aticaprant. […] The following plasma PK parameters of aticaprant will be determined. […]
quantity: AUC(0-t) (ng·h/mL)
Hi! Could you send only the number? It should be in ng·h/mL, unit omitted.

Query string: Quick one: AUC(0-t) of Cc1cc(C)cc(C2CCCN2Cc2ccc(Oc3ccc(C(N)=O)cc3F)cc2)c1 (stereo not shown) ?
Result string: 279

====

- assay notes: Phase 1 PK Part 2: relative bioavailability, dose proportionality, food effect of milled API tablet
- Format: in vivo, human
- particulars: human, plasma, oral, 5 mg, Treatment G: 1 × 5 mg Formulation Concept 2 (milled API tablet), fasting; median
quantity: Tmax (h)
Hi! Could you send only the number? It should be in h, unit omitted.

Query string: Quick one: Tmax of Cc1cc(C)cc(C2CCCN2Cc2ccc(Oc3ccc(C(N)=O)cc3F)cc2)c1 (stereo not shown) [aticaprant] ?
Result string: 1

====

- assay notes: Phase 1 PK Part 1: relative bioavailability, dose proportionality, food effect of unmilled API tablet
- Assay type: in vivo, human
- particulars: human, plasma, oral, 5 mg, Treatment C: 1 × 5 mg Formulation Concept 1 (unmilled API tablet), fasting; mean
quantity: Vd/F (L)
Hi! Could you send only the number? It should be in L, unit omitted.

Query string: Quick one: Vd/F of Cc1cc(C)cc(C2CCCN2Cc2ccc(Oc3ccc(C(N)=O)cc3F)cc2)c1 (stereo not shown) ?
Result string: 1150

====

- assay notes: Phase 1 PK Part 2: relative bioavailability, dose proportionality, food effect of milled API tablet
- Type: in vivo, human
- particulars: human, plasma, oral, 10 mg, Treatment F: 1 × 10 mg Formulation Concept 2 (milled API tablet), fasting; mean (SD)
quantity: half-life

Query string: Quick one: half-life of Cc1cc(C)cc(C2CCCN2Cc2ccc(Oc3ccc(C(N)=O)cc3F)cc2)c1 (stereo not shown) ?
Result string: 31 h

====

- assay notes: Phase 1 PK Part 2: relative bioavailability, dose proportionality, food effect of milled API tablet
- Type: in vivo, human
- particulars: human, plasma, po, 10 mg, Relative BA, completers; Treatment E (Reference): 2 × 5 mg oral capsule, fasting; read-out: Geometric Mean Cmax
quantity: Cmax (ng/mL)
Hi! Could you send only the number? It should be in ng/mL, unit omitted.

Query string: Quick one: Cmax of Cc1cc(C)cc(C2CCCN2Cc2ccc(Oc3ccc(C(N)=O)cc3F)cc2)c1 (stereo not shown) ?
Result string: 30.2

====

- assay notes: Phase 1 PK Part 1: relative bioavailability, dose proportionality, food effect of unmilled API tablet
- Format: in vivo, human
- particulars: human, plasma, oral, 10 mg, Treatment B: 1 × 10 mg Formulation Concept 1 (unmilled API tablet), fasting; mean; read-out: AUClast
quantity: AUC(0-t) (ng·h/mL)
Hi! Could you send only the number? It should be in ng·h/mL, unit omitted.

Query string: Quick one: AUC(0-t) of Cc1cc(C)cc(C2CCCN2Cc2ccc(Oc3ccc(C(N)=O)cc3F)cc2)c1 (stereo not shown) ?
Result string: 283

====

- assay notes: Phase 1 PK Part 2: relative bioavailability, dose proportionality, food effect of milled API tablet
- Type: in vivo, human
- particulars: human, plasma, oral, 10 mg, Food effect, completers; Treatment H (Test): 1 × 10 mg milled API tablet, high-fat diet; read-out: Geometric Mean AUClast
- From the text: This is a Phase 1, open-label, single dose, multicenter, 4-part study in healthy adult participants. Potential participants will be screened from Day −28 to Day −2 to determine participants' eligibility for study participation. […] In Parts 1 and 2, plasma concentrations will be determined for aticaprant. […] The following plasma PK parameters of aticaprant will be determined. […]
quantity: AUC(0-t) (ng·h/mL)
Hi! Could you send only the number? It should be in ng·h/mL, unit omitted.

Query string: Quick one: AUC(0-t) of Cc1cc(C)cc(C2CCCN2Cc2ccc(Oc3ccc(C(N)=O)cc3F)cc2)c1 (stereo not shown) ?
Result string: 377

====

- assay notes: Phase 1 PK Part 2: relative bioavailability, dose proportionality, food effect of milled API tablet
- Assay type: in vivo, human
- particulars: human, plasma, oral, 10 mg, Relative BA, completers; Treatment F (Test): 1 × 10 mg Formulation Concept 2 (milled API tablet), fasting; read-out: Geometric Mean Cmax
- Description: This is a Phase 1, open-label, single dose, multicenter, 4-part study in healthy adult participants. Potential participants will be screened from Day −28 to Day −2 to determine participants' eligibility for study participation. […] In Parts 1 and 2, plasma concentrations will be determined for aticaprant. […] The following plasma PK parameters of aticaprant will be determined. […]
quantity: Cmax
A complete answer gives the number followed by the unit.

Query string: Quick one: Cmax of Cc1cc(C)cc(C2CCCN2Cc2ccc(Oc3ccc(C(N)=O)cc3F)cc2)c1 (stereo not shown) [aticaprant] ?
Result string: 30.9 ng/mL

====

- assay notes: Phase 1 PK Part 1: relative bioavailability, dose proportionality, food effect of unmilled API tablet
- Format: in vivo, human
- particulars: human, plasma, oral, 5 mg, Treatment C: 1 × 5 mg Formulation Concept 1 (unmilled API tablet), fasting; mean; read-out: AUClast
quantity: AUC(0-t) (ng·h/mL)
Hi! Could you send only the number? It should be in ng·h/mL, unit omitted.

Query string: Quick one: AUC(0-t) of Cc1cc(C)cc(C2CCCN2Cc2ccc(Oc3ccc(C(N)=O)cc3F)cc2)c1 (stereo not shown) ?
Result string: 143

====

- assay notes: Phase 1 PK Part 1: relative bioavailability, dose proportionality, food effect of unmilled API tablet
- Assay type: in vivo, human
- particulars: Dose proportionality, completers; Treatment B (Reference): 1 × 10 mg Formulation Concept 1, fasting
quantity: Geometric Mean Cmax
A complete answer gives the number followed by the unit.

Query string: Quick one: Geometric Mean Cmax of Cc1cc(C)cc(C2CCCN2Cc2ccc(Oc3ccc(C(N)=O)cc3F)cc2)c1 (stereo not shown) [aticaprant] ?
Result string: 32.8 ng/mL

====

- assay notes: Phase 1 PK Part 2: relative bioavailability, dose proportionality, food effect of milled API tablet
- Assay type: in vivo, human
- particulars: human, plasma, oral, 10 mg, Treatment H: 1 × 10 mg Formulation Concept 2 (milled API tablet), after high-fat breakfast; mean; read-out: AUClast
quantity: AUC(0-t) (ng·h/mL)
Hi! Could you send only the number? It should be in ng·h/mL, unit omitted.

Query string: Quick one: AUC(0-t) of Cc1cc(C)cc(C2CCCN2Cc2ccc(Oc3ccc(C(N)=O)cc3F)cc2)c1 (stereo not shown) ?
Result string: 388

====

- assay notes: Phase 1 PK Part 2: relative bioavailability, dose proportionality, food effect of milled API tablet
- Format: in vivo, human
- particulars: human, plasma, po, 10 mg, Treatment E: 2 × 5 mg oral capsule, fasting; mean; read-out: AUClast
- From the text: This is a Phase 1, open-label, single dose, multicenter, 4-part study in healthy adult participants. Potential participants will be screened from Day −28 to Day −2 to determine participants' eligibility for study participation. […] In Parts 1 and 2, plasma concentrations will be determined for aticaprant. […] The following plasma PK parameters of aticaprant will be determined. […]
quantity: AUC(0-t) (ng·h/mL)
Hi! Could you send only the number? It should be in ng·h/mL, unit omitted.

Query string: Quick one: AUC(0-t) of Cc1cc(C)cc(C2CCCN2Cc2ccc(Oc3ccc(C(N)=O)cc3F)cc2)c1 (stereo not shown) ?
Result string: 308

====

- assay notes: Phase 1 PK Part 2: relative bioavailability, dose proportionality, food effect of milled API tablet
- Assay type: in vivo, human
- particulars: human, plasma, oral, 10 mg, Treatment H: 1 × 10 mg Formulation Concept 2 (milled API tablet), after high-fat breakfast; mean
quantity: half-life (min)
Hi! Could you send only the number? It should be in min, unit omitted.

Query string: Quick one: half-life of Cc1cc(C)cc(C2CCCN2Cc2ccc(Oc3ccc(C(N)=O)cc3F)cc2)c1 (stereo not shown) ?
Result string: 1850
